Just for reference, patent US12344663 is where these values come from.

- EXPERIMENTAL_TARGET: human complement C3 (human, UniProt P01024 23-1663)
- Sequence (P01024 23-1663 limits assumed): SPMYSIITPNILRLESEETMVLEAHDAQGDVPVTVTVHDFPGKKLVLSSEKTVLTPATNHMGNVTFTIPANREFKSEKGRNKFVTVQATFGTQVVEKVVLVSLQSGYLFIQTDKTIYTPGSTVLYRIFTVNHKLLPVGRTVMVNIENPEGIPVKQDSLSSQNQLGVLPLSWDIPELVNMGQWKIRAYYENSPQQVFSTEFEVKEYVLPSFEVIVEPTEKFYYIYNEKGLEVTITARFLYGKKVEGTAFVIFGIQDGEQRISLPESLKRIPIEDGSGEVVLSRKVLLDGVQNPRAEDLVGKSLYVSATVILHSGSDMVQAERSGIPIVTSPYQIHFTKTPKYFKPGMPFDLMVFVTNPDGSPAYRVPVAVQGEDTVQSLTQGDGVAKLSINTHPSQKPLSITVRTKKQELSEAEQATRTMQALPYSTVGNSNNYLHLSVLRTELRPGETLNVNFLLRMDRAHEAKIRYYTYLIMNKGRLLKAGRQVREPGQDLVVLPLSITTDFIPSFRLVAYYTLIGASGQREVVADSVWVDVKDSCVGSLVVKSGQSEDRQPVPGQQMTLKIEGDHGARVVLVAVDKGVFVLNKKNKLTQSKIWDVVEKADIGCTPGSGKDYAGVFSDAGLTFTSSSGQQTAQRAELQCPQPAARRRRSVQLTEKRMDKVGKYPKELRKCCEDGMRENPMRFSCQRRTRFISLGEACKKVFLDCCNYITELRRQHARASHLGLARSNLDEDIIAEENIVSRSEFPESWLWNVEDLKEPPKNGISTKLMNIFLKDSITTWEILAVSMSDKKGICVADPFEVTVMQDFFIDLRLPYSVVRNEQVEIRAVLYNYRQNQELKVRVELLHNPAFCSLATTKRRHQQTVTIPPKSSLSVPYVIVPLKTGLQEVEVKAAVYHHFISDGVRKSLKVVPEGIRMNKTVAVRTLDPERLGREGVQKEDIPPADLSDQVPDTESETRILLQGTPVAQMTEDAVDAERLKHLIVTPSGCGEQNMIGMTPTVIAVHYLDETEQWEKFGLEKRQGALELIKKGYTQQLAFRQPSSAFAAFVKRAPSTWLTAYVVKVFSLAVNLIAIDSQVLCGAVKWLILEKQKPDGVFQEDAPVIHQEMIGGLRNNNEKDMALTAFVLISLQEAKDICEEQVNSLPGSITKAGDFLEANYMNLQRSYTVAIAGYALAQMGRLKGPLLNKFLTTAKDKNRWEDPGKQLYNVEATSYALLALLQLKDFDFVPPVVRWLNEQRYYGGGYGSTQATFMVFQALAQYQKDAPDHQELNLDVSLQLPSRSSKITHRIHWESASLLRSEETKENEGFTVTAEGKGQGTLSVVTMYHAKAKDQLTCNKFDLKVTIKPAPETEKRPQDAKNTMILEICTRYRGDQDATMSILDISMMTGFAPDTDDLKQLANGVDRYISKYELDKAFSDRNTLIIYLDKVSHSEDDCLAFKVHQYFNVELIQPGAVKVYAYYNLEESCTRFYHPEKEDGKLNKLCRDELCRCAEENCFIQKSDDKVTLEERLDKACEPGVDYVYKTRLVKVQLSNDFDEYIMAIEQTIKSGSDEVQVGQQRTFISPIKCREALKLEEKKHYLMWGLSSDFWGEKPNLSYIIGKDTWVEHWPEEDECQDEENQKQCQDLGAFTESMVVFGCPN
- PROTOCOL_NOTES: cell-based or functional assay
Listed next: entries and their corresponding IC50 (nM), Classical Pathway, MAC deposition (WEISLAB, human serum).
// return numeric value only (unit: nM, not printed)

Worked cases, IC50 (nM), Classical Pathway, MAC deposition (WEISLAB, human serum) given:
• Comparative Compound A3 (antibody, human IgG1, kappa, V domains shown) VH: QVQLVQSGAEVKKPGASVKVSCKASGYTFTDFYMDWVRQAPGQRLEWMGYIYPHNGGTTYNQQFTGRVTITVDKSASTAYMELSSLRSEDTAVYYCARRGGFDFDYWGQGTLVTVSS VL: DIQMTQSPSSLSASVGDRVTITCKASENVDTYVSWYQQKPGKAPKLLIYGASNRYTGVPSRFSGSGSGTDFTFTISSLQPEDIATYHCGQSHSYPLTFGQGTKLEIKR = 56
• Clone I (scFv, also called exemplary antibody of the invention (Clone I); scFv of the invention) scFv: MQLVLTQSPSASASLGASVKLTCTLSSAHKTYTIDWYQQQPEKCPRYLMQLKSDGSYTKGSGIPDRFSGSSSGAERYLTISSLQSEDEADYYCGTEGVGGYVFGGGTKLTVLGGGGGSGGGGSGGGGSGGGGSQVQLVESGGGSVQPGRSLRLSCAASGFTFSNYAMNWVRQAPGKGLEWVAVISYDGSNKYYADSVKGRFTISRDNSKNTLYLQMNSLRAEDTASYYCARAVGYHHARLDPWGCGTSVTVSS = 79
• Clone III (scFv, also called scFv of the invention) scFv: MQLVLTQSPSASASLGASVKLTCTLSSAHKTYTIDWYQQQPEKCPRYLMQLKSEGSYTKGSGIPDRFSGSSSGAERYLTISSLQSEDEADYYCGTEGVGGYVFGGGTKLTVLGGGGGSGGGGSGGGGSGGGGSQVQLVESGGGSVQPGRSLRLSCAASGFTFSNYAMNWVRQAPGKGLEWVAIINVGGGTNYADSVKGRFTISRDNSKNTLYLQMNSLRAEDTASYYCARAVGYHHARLDPWGCGTSVTVSS = 73

Now look at this entry.
The recorded IC50 (nM), Classical Pathway, MAC deposition (WEISLAB, human serum) for Clone II (scFv, also called scFv of the invention) scFv: MQLVLTQSPSASASLGASVKLTCTLSSAHKTYTIDWYQQQPEKCPRYLMQLKSDGSYTKGSGIPDRFSGSSSGAERYLTISSLQSEDEADYYCGTEGVGGYVFGGGTKLTVLGGGGGSGGGGSGGGGSGGGGSQVQLVESGGGSVQPGRSLRLSCAASGFTFSNYAMNWVRQAPGKGLEWVAIINVGGGTNYADSVKGRFTISRDNSKNTLYLQMNSLRAEDTASYYCARAVGYHHARLDPWGCGTSVTVSS is 77
